Assay: yeast display, Sf9 membrane polyspecificity reagent, FACS + sequencing; frameworks hold sequencing errors
PARAMETER: polyreactivity (PSR sort gate)

A selection of reference data follows.
QGQLVESGGGLVQAGGSLRLSCAASGSSFPYYAMGWYRQAPGKERELVASINQSDGTTYYADSVKGRFSISRDNAKNTVYLQMNSLKPEDTAVYYCAADTTLQAFIRYSPIGSYDSWGQGTQVTVSS ... low polyreactivity
QVQLVESGGGLVQAGGSRRLTCAGSGYIFRPYAKRWYRQAPGKERELVAVISSGGSTYYADSVKGRFTISRDNEKNTVYFQMNSLKPQDTAVYYCKRTLWSMGGTTYEYWGQGTQVTVSS ... low polyreactivity
QVQLVESGGGLVQAGGSLRLSSAASGYILPFYAMGWYRQAPGKERELVASISSSSGRTNYADSVKGRFRISRDYAKNTVFFEMNSLKREVTEVYYCAAAFLSYVSTQYHYDYWGQGTQVSVSS ... low polyreactivity
QVQLVESGGGLVQAGGSLRLSCAASGSIYLKYAMGWYRQAPGKERELVAAISSRGGSTYYADSVKGRFTISRDNAKNTVYLQMNSLKPEDTAVYYCAAKRWPGTDGYWGQGTQVTVSS ... high polyreactivity
QVHLVESGGGLVQAGGSLRLSCADYGRTFSRYAMGWYRQAPGKERELVATINSRAGITNYPDTVKGRFTISRDNAKNTVYLQMTSLKPEDTAVYYCNRGRPGGPSWYHFDYWGQGSQVTVSS ... high polyreactivity
QVQLVESGVVLVQAGGSLRLSCAASGYTFRVYTMGWYRQAPGKERELVAAISRRGSRTYYADSVKGRFTISRDYAKNTVYLQKNSLKPEDTAVYYCAAGIPYPDDYWGLGTQVTVSS ... high polyreactivity

Turning now to a further record.
So for `QLQLVESGGGLVQAGGSLRLSCAPTGRTFYRNAMGCKRPAPGKESELVASIRRNGGSTYYADSVKGRFTITRDNAKNTVYLPMNSMKPEDTAVYYCAAYFSYAGPKGAVYGMDYWGQGTQVTVSS` , the logged polyreactivity (PSR sort gate) turned out to be high polyreactivity

----------
Assay: yeast display, Sf9 membrane polyspecificity reagent, FACS + sequencing; frameworks hold sequencing errors
PARAMETER: polyreactivity (PSR sort gate)

A selection of reference data follows.
QVQLVESGGGLVQAGGSLRLSCAASGSTFGINAMGWYRQAPGKERELVASITRRGGSTYYADSVKGRFTISRDNAKNTVYLRMNSLKPEDTAVYYCNKTYRYGTPLYDYWGQGTQVTVSS ... high polyreactivity
QVQLVESGGGLVQAGGSLRLRCAASGFNFSFDNAMGWYRQAPGKERELVAAISSGTTTHYADSVKGRFTISRDNAKNTVYLQMNSLKPEDTAVYYCAADTAQQSGYEYDYWGQGTQVTVSS ... low polyreactivity
QVQLVESGGGLVQAGGSLRLSCAASGRIFQRNVMGWYRQAPGKERELVASITGGGTTNYAHSVKGRFTISRDNAKNTVYLPRNSLKPEDTAVYYCNRRQNVGRVSQYEYWGQGTQVTVSS ... low polyreactivity
QDQLVESAGGLVQAGGSLRLSCAASGRIFVFNAMGWYIQAPGKERELVAGINRGASTYYADSVKGRFTISRDNAKNTVYFQMNSLKPEDTAVYYCAADNFWWTKLYYWGQGTQVTVSS ... high polyreactivity

Turning now to a further record.
So for `QVQLVESGGGLVQAGGSLRLSSAASGRIFQKYAMGWYRPAPGKERELVAAISSGDSTYADSVKGRFTISRDNAKNTVYLQMNSLKPEDTAVYYCAADDRWDYDYWGQGTQGTVSS` , the logged polyreactivity (PSR sort gate) turned out to be low polyreactivity

----------
Test: yeast display, Sf9 membrane polyspecificity reagent, FACS + sequencing; frameworks hold sequencing errors
PARAMETER: polyreactivity (PSR sort gate)

A selection of reference data follows.
QVQLVESGVGIVQAGGSLRLSCAASGSIFKTNAMGWYRHAPGNERELVAAITGSGGSTYYADSVKGRFTISRDNAKNNVYLQMMSLKPEDTAVYYCAKRSYRPILRWSYDYWGQGTQVTVSS ... low polyreactivity
QVQLVESGGGLVQAGGSLRLSCAASGFTFGYNDMGWYRQAPGKERELVAAIRLSDGGTYYADSVKGRFTISRDNAKNTVYLQMNSLKPEDTAVYYCAAPQDTYIPYDYWGQGTQVTVSS ... low polyreactivity
QVQLVESGGGLVQAGGSLRLSCAASGSILTWYPMGWYRQAPRKERELVAAITRGGSTYADSVKGRFTISRDNAKNTVYLQMNILKPEDTAVYYCKAVYGVYVFNYWGQGTQVSVSS ... low polyreactivity
QVQLVESGGGLVQAGGSLRLSCAASGLTFIYYAMGWYRQAPGKEREMVAAISTSGASTYYADSVKGRFTISRDNAKNTVYLQMNSLKPEVSAVYYCNGEYFGEYRDYGYWGQGTLVTVSS ... low polyreactivity
QVQLVESGGGLVQAGGSLRISCAASGFTFWYYVMGWYRQAPGKERELVAAISSGGSTYYADSVKGRFTISRDNAKNTVYLQINSLKPEDTAVYYCAASYRSATRQFDYWGQGTQVTVSS ... low polyreactivity
QVQLVESGGGLVQAGGSLRLSCAASGSTSDLYAMGWYRQAPGKERELVAAITWSGDSTYYADSVKGRFTISRDNAKNTVYLQMNSLKPEDTAVYYCNAEYYDYFDYESDYWGQGTQVTVSS ... low polyreactivity
QVQLVESGGGLVQAGGSHRLSSAASGGIFGKYAMGWYRQAPGKEMDLVAAITWNGGRTYYADSVKGRFTISRDNAKYTLYLQMNSLKPVDTAVHFCAVDDAYPDRYDYWGQGSQVTVSS ... high polyreactivity
QVQLVESGGGLVQAGGSLRLSCAASGRTFPSNAMGWYRQAPGKEREFVASITYSGGRTYYADSVKGRFTISRDNAKNTVYLQMNSLKPEDTAVYYCATARYRYHYYSWGQGTQVTVSS ... high polyreactivity

So for `QDQLVESGGGLVHAGGSLRISCAASGRILYAYPMGWYRQAPGKERELVAAINWSGGSTYYADSVKGRFTISRDNAKNTVYLQMNSLKPEDTAVYYCNRVLDPTNKYYYWGQGTQVTVSS` , the logged polyreactivity (PSR sort gate) turned out to be high polyreactivity

So for `QVQLVESGGGLVQAGGSLRLSCAASGGIFYNYAMGWYIQAPGKERELVAAITYSGVRTNYADSVKGRFTISRDNAKNTVYLQMNSLKPEDTAVYYCNAAVVYVKMDYWGQGTQVTVSS` , the logged polyreactivity (PSR sort gate) turned out to be low polyreactivity

----------
Experiment: yeast display, Sf9 membrane polyspecificity reagent, FACS + sequencing; frameworks hold sequencing errors
PARAMETER: polyreactivity (PSR sort gate)

A selection of reference data follows.
QVQLVESGGGLVKAGGILSLSCAASGRTFAFYGMGSYRQAPGKERELVATIRGTGGSTYYADSVKGRFTISRDNAKNTVYLQMNSLKPEDTAVYYCAAVNRRYPRYDYWGLGTQVTVSS ... high polyreactivity
QVQLVESGGGLVQAGGSLRLSCAASGRTFHYNAMGWYRQAPGKERELVAAITRSGGSTYYADSVKGRFTISRDNAKNTVYLQMNSLKPEDTAVYYCAAGWRSVSVRYYGPSDYWGQGTQVTVSS ... low polyreactivity
QVQLVESGGGLVQAGGSLRLSCAASGLTFWTNTMGWSRQAPGKERELVATISSGGGTYYADSVKGRFTISRDNAKNTVYLQMNSLKPEDTAVYYCAAKRKRYFVGYYYWGQGTQVTVSS ... low polyreactivity
QVQLVESGGGLVQAGGSLRLICAASGYTFYYAMGWYRQAPGKERELVAAISAGGGRTYYADSVKGRFTISRDNAKITVYLQMNSLKPEDTAVYYCNRVYRLTAYGYDYWGQGTQVTVSS ... high polyreactivity

So for `QVQLVESAGGLVQAGGSLRLSCAASGSTFGLNAMGRYRQAPGKERELVAAITRSGATTYYADSVKGRFTISRDNAKNTVYLKMNSLKPEDTAVYYCNKVYRPYTKRYYWGQGTQVTVSS` , the logged polyreactivity (PSR sort gate) turned out to be high polyreactivity

So for `QVQLVESGGGLVQARRSLRLSCAASGNIFWRNAMGWYRQAPGKERELVAAISRRAVSTYYADSVKGRFTISRDNAKNTVYLQMNSLKPEDTAVYYCAARLGGENDYWGQGTQVTVSS` , the logged polyreactivity (PSR sort gate) turned out to be high polyreactivity

So for `QVQLVESGGGLVQAGGSLRLSCAASGLTFIGNAMGWYRQAPGKERELVAAITWSGTSTYYADSVKGRFTISRDNAKNTVYLQMNSLKPEDTAVYYCAAVLRRLGVSYYYWGQGTQVTVSS` , the logged polyreactivity (PSR sort gate) turned out to be high polyreactivity

So for `QVQLLESGGGLVQAGGSLRLSCAASGSTYSRYDMGWYRPAPGKERELVAAISRSGGSTYYADSVKGRFTISRDNAKNTVYLQMNSLKPEDTAGYYCAAYLPYRQGRYGYEYWGQGTQVNVSS` , the logged polyreactivity (PSR sort gate) turned out to be high polyreactivity

So for `QVQLVESGGGLVQAGGSLRLICAASGLTFFLYPMGWYRPAPGKERELVAAISSRGGSTYYADSVKGRFTISRDKAKNTVYLQMYSLKPEDTAVYYCADATKGDEDYWGQGTQVTVSS` , the logged polyreactivity (PSR sort gate) turned out to be high polyreactivity

So for `QVQLVESGGGLVQAGGSLRLSCAASGRIFSLNAMGWYRQAPGNERELVAGNRKRGGSTYYADSVKGRFTISRDNAKNTLYLQMNSLKPEDTAVYYCAAQPALTYRFYYWGQGTQVTVSS` , the logged polyreactivity (PSR sort gate) turned out to be high polyreactivity

So for `QVQLVESGGGLVQAGGSLRLSCAASGMGWYRQAPGKERELVATITWSDGITYADSVKGRFTISRDNAKNTVYLQMNSLKPEDTAVYYCNADWDQTGTVFYSFGMREMDSWGQGTQVTVSS` , the logged polyreactivity (PSR sort gate) turned out to be low polyreactivity

So for `QVQLVESGGGLVQAGGSLRLSCAASGRTLGSNTMGWYRQAPGKERELVASISLSGGSTSYADSVKGRFTISRDNAKNTVYLQMNSLKPEDTAVYYCNAKYHRRLQWGTRYYYWGQGTQVTVSS` , the logged polyreactivity (PSR sort gate) turned out to be high polyreactivity
